tested on: Tobacco mosaic virus; experiment: Antiviral activity against Tobacco mosaic virus (TMV) in tobacco leaf juice at 500 ug/ml after 72 hr by half-leaf method; assay type: functional
inhibition at 500 µg/mL values, listed per item

smilesNotation | inhibition at 500 µg/mL / %
CCOc1ccc2c3c(c4cc(OC)c(OC)cc4c2c1)C[C@@H]1CCCN1C3 | 56.2
CNCC(=O)N[C@@H](CO)C(=O)N[C@H]1[C@H](O)[C@@H](O)[C@H](n2ccc(N)nc2=O)O[C@@H]1C(N)=O | 69.3
COc1cc2c3c(c4ccc(OCCO)cc4c2cc1OC)CN1CCC[C@H]1C3 | 43.9
COc1cc2c3c(c4ccc(OCC#N)cc4c2cc1OC)CN1CCC[C@@H]1C3 | 79.3
COc1cc2c3c(c4ccc(OCCO)cc4c2cc1OC)CN1CCC[C@@H]1C3 | 78.2
C#CCOc1ccc2c3c(c4cc(OC)c(OC)cc4c2c1)C[C@@H]1CCCN1C3 | 75
COc1cc2c3c(c4ccc(O)cc4c2cc1OC)CN1CCC[C@H]1C3 | 52.2
C#CCOc1ccc2c3c(c4cc(OC)c(OC)cc4c2c1)C[C@H]1CCCN1C3 | 61.2
COc1ccc2c3c(c4cc(OC)c(OC)cc4c2c1)C[C@@H]1CCCN1C3 | 60.2

The reported numbers originate from ChEMBL document CHEMBL3045436.
